Sourced from patent US20240409645A1

- EXPERIMENTAL_TARGET: T1, human IL-2Rα (human, UniProt P01589 22-240, limits assumed)
- T1 construct: recombinant protein; also called hu IL-2R; human IL-2Ra
- T1 sequence: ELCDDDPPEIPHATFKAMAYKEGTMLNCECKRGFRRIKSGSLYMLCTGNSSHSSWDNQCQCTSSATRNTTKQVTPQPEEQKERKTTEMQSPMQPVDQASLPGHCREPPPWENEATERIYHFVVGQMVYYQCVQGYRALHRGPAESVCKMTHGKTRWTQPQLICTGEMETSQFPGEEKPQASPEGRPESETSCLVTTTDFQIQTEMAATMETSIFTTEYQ
- TEST_DESCRIPTION: ELISA, P.E. on coated antigen
ASSAY_ENDPOINT: OD (PE binding ELISA) (OD450 nm)
Lab book: enter the figure in OD450 nm, no units written.

Memo: 3-MP01E03 (VHH, periplasmic extract; also called FJ1427_P035MP01E03) VHH: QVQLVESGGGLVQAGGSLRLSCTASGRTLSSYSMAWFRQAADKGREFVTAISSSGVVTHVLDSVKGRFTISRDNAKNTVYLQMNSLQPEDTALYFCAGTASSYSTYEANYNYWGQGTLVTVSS , reported OD (PE binding ELISA): 2.54

The binder identified as 1-MP01H01 (VHH, periplasmic extract; also called FJ1427_P035MP01H01) VHH: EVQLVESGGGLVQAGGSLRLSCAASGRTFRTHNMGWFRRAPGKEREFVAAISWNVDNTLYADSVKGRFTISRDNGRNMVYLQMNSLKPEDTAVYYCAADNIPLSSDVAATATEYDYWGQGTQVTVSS registered its OD (PE binding ELISA) at 1.71

Sample FJ1427_P035MP01C03 (VHH, periplasmic extract; also called clone nr; 19) VHH: EVQLVESGGGLVQPGGSLRLSCATSGFTFRNNFMSWVRQAPGKGLEWVSTISYGGESTTYAESVKGRFTISRDNAKNTLYLQMNNLKPEDTAVYYCAKATSYDSIRSGSRGQGTQVTVSS ; OD (PE binding ELISA) observed: 2.84

Lab note: measured OD (PE binding ELISA) of 5-MP01F05 (VHH, periplasmic extract; also called FJ1427_P035MP01F05) VHH: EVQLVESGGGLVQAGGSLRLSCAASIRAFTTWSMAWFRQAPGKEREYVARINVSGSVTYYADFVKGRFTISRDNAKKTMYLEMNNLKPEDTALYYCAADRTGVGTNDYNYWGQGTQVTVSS was 2.62
